- System: 171881-019-R-J1-PDC multicell spheroid viability
- procedure-text: Anticancer human tumor 171881-019-R-J1-PDC patient-derived invasive breast carcinoma cell line growth inhibition [IpAb]
- condition-context: second compound 1 µM; first compound 0.316 µM; hits give low values
measurement-name: viability, T/C (%)
// return numeric value only (unit: %, not printed)

COc1c(OCCCN2CCOCC2)ccc2c3n(c(=NC(=O)c4cnc(N)nc4)nc12)CCN3 + CC(C)NCC(C(=O)N1CCN(c2ncnc3c2C(C)CC3O)CC1)c1ccc(Cl)cc1
0.79
Cn1ncc(Cl)c1-c1cc(C(=O)NC(CN)Cc2cccc(F)c2)sc1Cl (configuration not stated) + CCN1CCN(Cc2ccc(Nc3ncc(F)c(-c4cc(F)c5nc(C)n(C(C)C)c5c4)n3)nc2)CC1
50.1
Cn1ncc(Cl)c1-c1cc(C(=O)NC(CN)Cc2cccc(F)c2)sc1Cl (configuration not stated) + CC(C)NCC(C(=O)N1CCN(c2ncnc3c2C(C)CC3O)CC1)c1ccc(Cl)cc1
13.8
Cn1nccc1Nc1nccc(-c2ccn(C(CO)c3ccc(Cl)c(F)c3)c(=O)c2)n1 (configuration not stated) + CC(C)NCC(C(=O)N1CCN(c2ncnc3c2C(C)CC3O)CC1)c1ccc(Cl)cc1
3.68
C=CC(=O)N1CCN(c2nc(=O)n(-c3c(C)ccnc3C(C)C)c3nc(-c4c(O)cccc4F)c(F)cc23)C(C)C1 (configuration not stated) + CCN1CCN(Cc2ccc(Nc3ncc(F)c(-c4cc(F)c5nc(C)n(C(C)C)c5c4)n3)nc2)CC1
149
Cn1nccc1Nc1nccc(-c2ccn(C(CO)c3ccc(Cl)c(F)c3)c(=O)c2)n1 (configuration not stated) + CCN1CCN(Cc2ccc(Nc3ncc(F)c(-c4cc(F)c5nc(C)n(C(C)C)c5c4)n3)nc2)CC1
87.5

Pending compound:
Problem: Consider the compound C=CC(=O)N1CCN(c2nc(=O)n(-c3c(C)ccnc3C(C)C)c3nc(-c4c(O)cccc4F)c(F)cc23)C(C)C1 (configuration not stated) + CC(C)NCC(C(=O)N1CCN(c2ncnc3c2C(C)CC3O)CC1)c1ccc(Cl)cc1 and give its recorded viability, T/C.
Solution: 25.9

###

- System: 171881-019-R-J1-PDC multicell spheroid viability
- procedure-text: Anticancer human tumor 171881-019-R-J1-PDC cell line growth inhibition [IpAb];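 also: spheroids exposed to the agents for seven days before readout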
- condition-context: second compound 10 µM; first compound 3.16 µM; hits give low values
- Description: Combinatorial screen of targeted agents with ipatasertib and abemaciclib in multi-cell type tumor spheroids […] Compounds. […] If the clinical Cmax for an agent had not been determined, the highest concentration tested was 10 microM. NCI60 Cell Culture. […] The optimal seeding densities for each of the cell lines at each time point assessed were determined prior to performing the concentration response studies. […]
measurement-name: viability, T/C (%)
// return numeric value only (unit: %, not printed)

C=CCn1c(=O)c2cnc(Nc3ccc(N4CCN(C)CC4)cc3)nc2n1-c1cccc(C(C)(C)O)n1 + CC(C)NCC(C(=O)N1CCN(c2ncnc3c2C(C)CC3O)CC1)c1ccc(Cl)cc1
4.97
Cn1ncc(Cl)c1-c1cc(C(=O)NC(CN)Cc2cccc(F)c2)sc1Cl (configuration not stated) + CC(C)NCC(C(=O)N1CCN(c2ncnc3c2C(C)CC3O)CC1)c1ccc(Cl)cc1
2.7
Cn1nccc1Nc1nccc(-c2ccn(C(CO)c3ccc(Cl)c(F)c3)c(=O)c2)n1 (configuration not stated) + CC(C)NCC(C(=O)N1CCN(c2ncnc3c2C(C)CC3O)CC1)c1ccc(Cl)cc1
0.84
Cc1nc(NC(=O)N2CCCC2C(N)=O)sc1-c1ccnc(C(C)(C)C(F)(F)F)c1 (configuration not stated) + CC(C)NCC(C(=O)N1CCN(c2ncnc3c2C(C)CC3O)CC1)c1ccc(Cl)cc1
1.77
CCCS(=O)(=O)Nc1ccc(F)c(C(=O)c2c[nH]c3ncc(-c4ccc(Cl)cc4)cc23)c1F + CC(C)NCC(C(=O)N1CCN(c2ncnc3c2C(C)CC3O)CC1)c1ccc(Cl)cc1
10.4
C=CC(=O)N1CCN(c2nc(=O)n(-c3c(C)ccnc3C(C)C)c3nc(-c4c(O)cccc4F)c(F)cc23)C(C)C1 (configuration not stated) + CC(C)NCC(C(=O)N1CCN(c2ncnc3c2C(C)CC3O)CC1)c1ccc(Cl)cc1
5.64

Pending molecule:
Problem: Answer with viability, T/C of CC1(C)CCC(CN2CCN(c3ccc(C(=O)NS(=O)(=O)c4ccc(NCC5CCOCC5)c([N+](=O)[O-])c4)c(Oc4cnc5[nH]ccc5c4)c3)CC2)=C(c2ccc(Cl)cc2)C1 + CC(C)NCC(C(=O)N1CCN(c2ncnc3c2C(C)CC3O)CC1)c1ccc(Cl)cc1 measured for 171881-019-R-J1-PDC multicell spheroid viability.
Solution: 5.63

Attribution: PubChem BioAssay AID2060342
